# System: MM1.S
# method-summary: Antiproliferative activity against human MM1.S cells assessed as inhibition of cell proliferation measured after 6 days by CCK8 assay
# Type: functional, cell-based
# condition-parameters: 144 h
measure-name: IC50
Be sure to follow the number with its unit.

Just so you know, measured IC50 for "Cc1cc(CN2CCC(N)CC2)cc(C)c1-c1ncn(C)c1-c1ccc(C#N)c2ccccc12" came out at 11 µM

====

# experimental-target: Histone-lysine N-methyltransferase NSD2 (Homo sapiens, UniProt O96028)
# Sequence (O96028 whole entry): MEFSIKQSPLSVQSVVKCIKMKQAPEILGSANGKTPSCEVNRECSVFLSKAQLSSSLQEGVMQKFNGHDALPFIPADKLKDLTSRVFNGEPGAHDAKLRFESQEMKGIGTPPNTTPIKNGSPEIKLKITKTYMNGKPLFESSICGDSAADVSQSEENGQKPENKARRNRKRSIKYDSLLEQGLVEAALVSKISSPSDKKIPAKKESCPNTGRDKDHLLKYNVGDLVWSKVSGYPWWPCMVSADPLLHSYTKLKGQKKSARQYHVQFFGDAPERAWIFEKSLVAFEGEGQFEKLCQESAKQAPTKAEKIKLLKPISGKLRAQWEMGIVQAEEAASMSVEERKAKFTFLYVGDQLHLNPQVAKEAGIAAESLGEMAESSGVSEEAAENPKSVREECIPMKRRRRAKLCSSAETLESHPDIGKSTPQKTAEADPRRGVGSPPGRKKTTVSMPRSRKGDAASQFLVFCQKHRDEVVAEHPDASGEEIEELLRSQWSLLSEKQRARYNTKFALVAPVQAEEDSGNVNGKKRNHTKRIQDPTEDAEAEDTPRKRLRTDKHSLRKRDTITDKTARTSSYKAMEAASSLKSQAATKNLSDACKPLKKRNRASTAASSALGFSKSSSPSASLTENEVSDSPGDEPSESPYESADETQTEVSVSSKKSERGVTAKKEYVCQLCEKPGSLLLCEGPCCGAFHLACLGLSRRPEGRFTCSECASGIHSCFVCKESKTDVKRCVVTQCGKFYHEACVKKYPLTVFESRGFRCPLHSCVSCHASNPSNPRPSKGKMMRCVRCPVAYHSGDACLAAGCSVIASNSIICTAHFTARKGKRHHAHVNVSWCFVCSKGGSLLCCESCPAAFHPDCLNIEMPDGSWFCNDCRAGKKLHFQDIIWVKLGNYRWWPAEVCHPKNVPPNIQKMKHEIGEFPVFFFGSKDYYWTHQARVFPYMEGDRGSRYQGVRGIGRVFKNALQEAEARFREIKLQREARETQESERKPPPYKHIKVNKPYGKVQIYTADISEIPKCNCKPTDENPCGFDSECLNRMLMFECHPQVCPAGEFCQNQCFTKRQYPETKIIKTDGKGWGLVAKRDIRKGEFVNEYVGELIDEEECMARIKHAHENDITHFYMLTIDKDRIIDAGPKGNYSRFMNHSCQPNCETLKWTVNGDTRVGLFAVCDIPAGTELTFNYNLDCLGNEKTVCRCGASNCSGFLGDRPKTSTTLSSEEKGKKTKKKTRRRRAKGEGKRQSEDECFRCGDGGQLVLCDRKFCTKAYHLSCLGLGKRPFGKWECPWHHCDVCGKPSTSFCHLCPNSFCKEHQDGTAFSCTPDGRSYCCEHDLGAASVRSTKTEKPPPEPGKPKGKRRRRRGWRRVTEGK
measure-name: pIC50
Numbers only, as −log10 of the molar value.

Answered cases to consult:
[
  {
    "smiles-representation": "COc1cc(CN)cc(OC)c1-c1ncn(C)c1-c1ccc(C#N)cc1",
    "measured-number": 5.35
  },
  {
    "smiles-representation": "COc1cc(CN)ccc1-c1ncn(C)c1-c1ccc(C#N)cc1",
    "measured-number": 4.92
  }
]

For every item in the list below, what is its measured pIC50?
1. Cc1cc(CN2CCN(C(=O)OC(C)(C)C)CC2)cc(C)c1-c1ncn(C)c1-c1ccc(C#N)c2ccccc12
2. Cc1cc(CN2CCCC2)cc(C)c1-c1ncn(C)c1-c1ccc(C#N)c2ccccc12
3. Cc1cc(CN2CCC(NC(=O)OC(C)(C)C)CC2)cc(C)c1-c1ncn(C)c1-c1ccc(C#N)c2ccccc12
4. Cc1cc(CNC(=O)OC(C)(C)C)cc(C)c1-c1ncn(C)c1-c1ccc(C#N)c2ccccc12

A.
1: 5.09; 2: 5.68; 3: 5.09; 4: 5.78
